All figures here come from patent US10590086B2.

# assaySystem: IDO (Homo sapiens)
# Sequence (P14902 whole entry): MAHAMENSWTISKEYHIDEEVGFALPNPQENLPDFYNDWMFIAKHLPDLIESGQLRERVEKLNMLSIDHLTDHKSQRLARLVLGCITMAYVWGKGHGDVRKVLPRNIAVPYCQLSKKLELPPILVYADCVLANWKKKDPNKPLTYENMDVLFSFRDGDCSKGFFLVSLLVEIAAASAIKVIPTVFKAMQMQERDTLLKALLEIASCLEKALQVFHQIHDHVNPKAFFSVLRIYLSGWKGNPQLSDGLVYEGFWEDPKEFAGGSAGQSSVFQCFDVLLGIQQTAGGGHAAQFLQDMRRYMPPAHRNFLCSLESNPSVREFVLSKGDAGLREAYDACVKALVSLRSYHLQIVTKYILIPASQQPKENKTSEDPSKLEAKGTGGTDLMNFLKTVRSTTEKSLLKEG
# assayInfo: hIDO biochemical coupled assay
# experimentalContext: 45 μM L-tryptophan, 17 minutes, room temperature; read-out: hIDO biochemical assay pIC50 (converted)
quantityKind: IC50

The examples below pair each entry with its known result.
CC(C)Cn1cc(-c2cc(Cl)cc3[nH]ncc23)cn1; > 100 µM
O=C1N(c2ccccc2)CNC12CCN(c1cc(Cl)cc3[nH]ncc13)CC2; 3.24 to 31.6 µM

Batch request: IC50 for each of the following compounds.
1. CS(=O)(=O)N1CCC(c2cccc3[nH]ncc23)CC1
2. Cn1ccnc1N1CCN(c2cc(Cl)cc3[nH]ncc23)CC1
3. CCNC(=O)c1cc(Cl)cc2[nH]ncc12

## Output
> 100 µM
> 100 µM
> 100 µM

Batch request: IC50 for each of the following compounds.
1. CN(c1ccc(-c2cc(Cl)cc3[nH]ncc23)cc1)S(C)(=O)=O
2. CC1(C)CN(c2cc(C(F)(F)F)cc3[nH]ncc23)CCN1S(C)(=O)=O
3. CS(=O)(=O)c1ccc(-c2cc(Cl)cc3[nH]ncc23)cc1Cl
4. O=C1NC2(CCN(c3cc(Cl)cc4[nH]ncc34)CC2)C(=O)N1CCO

## Output
32.4 to 100 µM
3.24 to 31.6 µM
3.24 to 31.6 µM
< 3.16 µM
